The measurements presented in this section are drawn from patent US20190119358A1.

- TARGET: GMPPNP-loaded H-Ras or GTP-loaded K-Ras
- METHOD: FP competition, displacement of probe R4007 from Ras
*1 amine or outer side, *2 acyl side, *3 side chain or, on linkers, in order; H or OH if unused. Bridges are numbered along the chain shown (N, C = ends). [ ]: non-standard residue; d: D form. The star is where a group is joined. MORAC = (S)-5-acrylamido-2-(methylamino)pentanoic acid, C=CC(=O)NCCC[C@@H](C(=O)[*:2])N(C)[*:1]; Trp(7-aza) = N[C@@H](Cc1c[nH]c2ncccc12)C(=O)O; NMePhe(4-F) = CN[C@@H](Cc1ccc(F)cc1)C(=O)O; ivDde = CC(C)CC(=C1C(=O)CC(C)(C)CC1=O)*; mXylylene = c1cc(C[*:1])cc(C[*:2])c1; Glutaryl = O=C(CCCC(=O)[*:2])[*:1]; Phg = N[C@H](C(=O)O)c1ccccc1; Tle = CC(C)(C)[C@H](N)C(=O)O; NMeA = CN[C@@H](C)C(=O)O; Nva = CCC[C@H](N)C(=O)O; Dap = NC[C@H](N)C(=O)O; Sar = CNCC(=O)O
ASSAY ENDPOINT: IC50 (nM)
Please state the figure in nM; there is no need to write the unit.

Past entries and their recorded results:
# query: IC50 of entry Glutaryl-[Nva]CY[Tle]K(ivDde)H[NMeA][Phg][Trp(7-aza)]Y[NMePhe(4-F)][Sar]C-NH2 (linker 2-13 via m‑xylylene) [R4138]
461

Can you handle Ac-[Nva]CY[Tle]AH[MORAC][Phg][Trp(7-aza)]Y[NMePhe(4-F)][Sar]C-NH2 (linker 2-13 via mXylylene; SMILES C=CC(=O)NCCC[C@H]1C(=O)N[C@@H](c2ccccc2)C(=O)N[C@@H](Cc2c[nH]c3ncccc23)C(=O)N[C@@H](Cc2ccc(O)cc2)C(=O)N(C)[C@@H](Cc2ccc(F)cc2)C(=O)N(C)CC(=O)N[C@H](C(N)=O)CSCc2cccc(c2)CSC[C@H](NC(=O)[C@H](CCC)NC(C)=O)C(=O)N[C@@H](Cc2ccc(O)cc2)C(=O)N[C@@H](C(C)(C)C)C(=O)N[C@@H](C)C(=O)N[C@@H](Cc2c[nH]cn2)C(=O)N1C) [R4142] next?
1240

Others:
# query: IC50 of entry Ac-[Nva]CY[Tle]A[Dap][NMeA][Phg][Trp(7-aza)]Y[NMePhe(4-F)][Sar]C-NH2 (linker 2-13 via mXylylene; SMILES CCC[C@H](NC(C)=O)C(=O)N[C@H]1CSCc2cccc(c2)CSC[C@@H](C(N)=O)NC(=O)CN(C)C(=O)[C@H](Cc2ccc(F)cc2)N(C)C(=O)[C@H](Cc2ccc(O)cc2)NC(=O)[C@H](Cc2c[nH]c3ncccc23)NC(=O)[C@H](c2ccccc2)NC(=O)[C@H](C)N(C)C(=O)[C@H](CN)NC(=O)[C@H](C)NC(=O)[C@H](C(C)(C)C)NC(=O)[C@H](Cc2ccc(O)cc2)NC1=O) [R4141]
695
